# Assay summary: growth inhibition of DIPG glioma cells, dose response, cell-based, JHH-DIPG-1, MIPE4.0, CellTiter-Glo, qHTS (AID 1347062);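 for AC50: cells exposed to compound for two days before readout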
# Test conditions: JHH-DIPG-1 viability, CellTiter-Glo ATP luminescence
Records with an inconclusive call do not appear. The source made the active and inactive calls. No cut-off is given here; in the data, nearly all actives have AC50 up to about 27 µM.
Outcomes: true = active, false = inactive

- Compound: "CO/C1=C/C(C)=C\\[C@@H](C)[C@@H](O)[C@@H](C)C/C(C)=C\\C=C/[C@H](OC)[C@@H]([C@@H](C)[C@@H](O)[C@H](C)[C@@]2(O)C[C@@H](O)[C@H](C)[C@@H](C(C)C)O2)OC1=O"
  Discrete label: "true"
- Compound: "CC(C)CC(N(C)C)C1(c2ccc(Cl)cc2)CCC1 (centres undefined)"
  Discrete label: "false"
- Compound: "CC1=C2C[C@H]3[C@@H](CC=C4C[C@@H](O)CC[C@@]43C)[C@@H]2CC[C@]12O[C@@H]1C[C@H](C)CN[C@H]1[C@H]2C"
  Discrete label: "false"
- Compound: "CC(C)(C)[C@]1(O)C[C@@H]2OC(=O)C[C@@]23C(=O)O[C@@H]2OC(=O)[C@H](O)C213 (some centres undefined)"
  Discrete label: "false"
